// viability, T/C lookup, one value per entry
Tested on: 565726-208-R1-J5-PDC complex spheroids, growth inhibition
test description: Anticancer human tumor 565726-208-R1-J5-PDC patient-derived pancreatic adenocarcinoma cell line growth inhibition [RAS]
conditions: compound 0.00949 µM; stronger effect = lower value

{"compound": "CC1(C)CCC(Nc2ncc(C(F)(F)F)c(-c3c[nH]c4c(P(C)(C)=O)c(C#N)ccc34)n2)CN1 (centres undefined)", "experimental target": "565726-208-R1-J5-PDC complex spheroids, growth inhibition", "viability, T/C": "37.9% [middle of 4 runs]"}
{"compound": "CCc1c2c(nc3ccc(O)cc13)-c1cc3c(c(=O)n1C2)COC(=O)[C@]3(O)CC", "experimental target": "565726-208-R1-J5-PDC complex spheroids, growth inhibition", "viability, T/C": "34.4% [middle of 4 runs]"}
{"compound": "CCn1c(-c2cccnc2C(C)OC)c2c3cc(ccc31)N1CCOC(CC(NC(=O)C(C(C)C)N(C)C(=O)C3(F)CCN(C(=O)C#CC(C)(C)N(C)C)CC3)C(=O)N3CCCC(N3)C(=O)OCC(C)(C)C2)C1 (centres undefined)", "experimental target": "565726-208-R1-J5-PDC complex spheroids, growth inhibition", "viability, T/C": "104% [middle of 8 runs]"}
{"compound": "CCn1c(-c2cc(N3CCN(C)CC3)cnc2C(C)OC)c2c3cc(ccc31)-c1csc(n1)CC(NC(=O)C1CC1C)C(=O)N1CCCC(N1)C(=O)OCC(C)(C)C2 (centres undefined)", "experimental target": "565726-208-R1-J5-PDC complex spheroids, growth inhibition", "viability, T/C": "43.7% [middle of 8 runs]"}

----------
System: 565726-208-R1-J5-PDC complex spheroids, growth inhibition
test description: Anticancer human tumor 565726-208-R1-J5-PDC cell line growth inhibition [RAS]; active means viability on the fitted dose curve at most 10% of control; inactive means the rest;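 note: spheroids exposed to compounds for seven days before readout; 100% = DMSO vehicle control viability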
conditions: second compound 0.0949 µM; first compound 10 µM
Outcome codes: active, inactive

{"molecule": "CC(=O)OC12COC1CC(O)C1(C)C(=O)C(O)C3=C(C)C(OC(=O)C(O)C(NC(=O)OC(C)(C)C)c4ccccc4)CC(O)(C(OC(=O)c4ccccc4)C21)C3(C)C (stereo not drawn) + CCn1c(-c2cc(N3CCN(C)CC3)cnc2C(C)OC)c2c3cc(ccc31)-c1csc(n1)CC(NC(=O)C1CC1C)C(=O)N1CCCC(N1)C(=O)OCC(C)(C)C2", "class": "inactive"}
{"molecule": "CC(Nc1ccc2c(c1)OCCn1cc(N3C(=O)OCC3C(F)F)nc1-2)C(N)=O (stereo not drawn) + CCn1c(-c2cc(N3CCN(C)CC3)cnc2C(C)OC)c2c3cc(ccc31)-c1csc(n1)CC(NC(=O)C1CC1C)C(=O)N1CCCC(N1)C(=O)OCC(C)(C)C2", "class": "inactive"}
{"molecule": "Cc1nc(N2CCC3(CC2)COC(C)C3N)c(CO)nc1Sc1ccnc(N)c1Cl (stereo not drawn) + CCn1c(-c2cccnc2C(C)OC)c2c3cc(ccc31)N1CCOC(CC(NC(=O)C(C(C)C)N(C)C(=O)C3(F)CCN(C(=O)C#CC(C)(C)N(C)C)CC3)C(=O)N3CCCC(N3)C(=O)OCC(C)(C)C2)C1", "class": "inactive"}
{"molecule": "CCC(CC)c1cc(NC2CCC(N)C2)n2nccc2n1 (stereo not drawn) + CCn1c(-c2cccnc2C(C)OC)c2c3cc(ccc31)N1CCOC(CC(NC(=O)C(C(C)C)N(C)C(=O)C3(F)CCN(C(=O)C#CC(C)(C)N(C)C)CC3)C(=O)N3CCCC(N3)C(=O)OCC(C)(C)C2)C1", "class": "active"}
{"molecule": "CCC(CC)c1cc(NC2CCC(N)C2)n2nccc2n1 (stereo not drawn) + CCn1c(-c2cc(N3CCN(C)CC3)cnc2C(C)OC)c2c3cc(ccc31)-c1csc(n1)CC(NC(=O)C1CC1C)C(=O)N1CCCC(N1)C(=O)OCC(C)(C)C2", "class": "active"}
{"molecule": "CC(=O)OC12COC1CC(O)C1(C)C(=O)C(O)C3=C(C)C(OC(=O)C(O)C(NC(=O)OC(C)(C)C)c4ccccc4)CC(O)(C(OC(=O)c4ccccc4)C21)C3(C)C (stereo not drawn) + CCn1c(-c2cccnc2C(C)OC)c2c3cc(ccc31)N1CCOC(CC(NC(=O)C(C(C)C)N(C)C(=O)C3(F)CCN(C(=O)C#CC(C)(C)N(C)C)CC3)C(=O)N3CCCC(N3)C(=O)OCC(C)(C)C2)C1", "class": "inactive"}
{"molecule": "NC1c2ccccc2OC12CCN(c1cnc3c(N4CCCc5ncccc54)n[nH]c3n1)CC2 (stereo not drawn) + CCn1c(-c2cc(N3CCN(C)CC3)cnc2C(C)OC)c2c3cc(ccc31)-c1csc(n1)CC(NC(=O)C1CC1C)C(=O)N1CCCC(N1)C(=O)OCC(C)(C)C2", "class": "inactive"}
{"molecule": "Cc1nc(N2CCC3(CC2)COC(C)C3N)c(CO)nc1Sc1ccnc(N)c1Cl (stereo not drawn) + CCn1c(-c2cc(N3CCN(C)CC3)cnc2C(C)OC)c2c3cc(ccc31)-c1csc(n1)CC(NC(=O)C1CC1C)C(=O)N1CCCC(N1)C(=O)OCC(C)(C)C2", "class": "inactive"}

Origin of measurements: PubChem BioAssay AID2060899
